Tested on: OVCAR-5
Test: NCI tumour cell line growth inhibition, 48 h
Activity calls are given as the source filed them. No stated cut-off is given here; in the data, active = GI50 up to about 1.1 µM and inactive = higher.
observed.property: GI50

Oc1ccc2c(c1)OCC(O)(c1ccccc1O)C2 (stereo unspecified) = > 100 µM (inactive)
CCC1(CN(C)C)CC/C(=C\c2ccc(OC)cc2)C1=O (stereo unspecified) = > 100 µM (inactive)
CSc1c(C#N)c2n(c3ccccc3[n+]2C)c2ncccc12 = 23.2 µM (inactive)
COc1ccc(/N=N/c2ccc3oc(=O)c(C(=O)Nc4ccc(OC)cc4)cc3c2)cc1 = 17.8 µM (inactive)
CCCCCCCCCC(=O)CC(=O)c1c(O)cccc1O = 22.9 µM (inactive)

Please report the measured GI50 for `O=C(c1ccccc1)N1CCN(C(=S)N(C(=O)c2ccccc2)c2ccccc2)C1=S`
15.9 µM (inactive)

* * *

Test system: SK-OV-3
Assay: NCI tumour cell line growth inhibition, 48 h
Activity calls are given as the source filed them. No stated cut-off is given here; in the data, active = GI50 up to about 1.1 µM and inactive = higher.
For each entry below, report its GI50 value.

CC(=O)[C@H]1[C@@H](OCc2ccccc2)O[N+]([O-])=C(C)[C@@H]1c1ccccc1 = > 100 µM (inactive)
COc1cc(/C=C(\C#N)C(N)=C(C#N)C#N)cc(O)c1O = > 100 µM (inactive)
OCC(O)C(O)c1nn(-c2ccccc2)c2nc3cc(Cl)c(Cl)cc3nc12 (stereo unspecified) = 30.6 µM (inactive)
CCCCCCCCCCCCOC(=S)NCCCC = 18.7 µM (inactive)
COc1ccc(/N=N/C(C(=O)c2ccccc2)C(=O)c2ccccc2)cc1 = 45.9 µM (inactive)

Return reported GI50 values for all items listed beneath this line.
1. CN(N=O)C(=O)NC(CCCCNC(=O)OCc1ccccc1)C(=O)OCc1ccccc1 (stereo unspecified)
2. CC1CCCCN1CC(=O)c1ccc2c(c1)Sc1ccccc1O2 (stereo unspecified)
3. CCOC(=O)C1=C(C)N(NC(=O)Nc2ccccc2)C(=O)C1=P(c1ccccc1)(c1ccccc1)c1ccccc1

> 100 µM (inactive)
16.4 µM (inactive)
> 100 µM (inactive)

* * *

Tested on: T47D
Experiment: NCI tumour cell line growth inhibition, 48 h
Calls of active or inactive are those of the source. Cut-off read from the data, not from the text of the source: active = GI50 up to about 1.1 µM and inactive = higher.
API: response.call in active, inactive

Solved entries:
COC(=O)c1cc2c(n1S(=O)(=O)c1ccc(C)cc1)C(=O)C(=O)c1[nH]cc(C(=O)OCc3ccccc3)c1-2 = active
CCc1nc(N)nc(N)c1-c1ccc(NCCN)c([N+](=O)[O-])c1 = inactive
CCOC(=O)c1cc([N+](=O)[O-])cc([N+](=O)[O-])c1Sc1[nH]cnc2ncnc1-2 = inactive
COc1ccc(/N=N/c2ccc3oc(=O)c(C(=O)Nc4ccc(OC)cc4)cc3c2)cc1 = inactive
O=C(O)CCNc1[nH]cnc2ncnc1-2 = inactive

I would be grateful if you could indicate the recorded call for CC(C)(Cl)C(Br)CCC(C)(Cl)C(Br)CBr (stereo not given) .
inactive

I would be grateful if you could indicate the recorded call for CNC(=O)N(C1=NCC(C)S1)c1ccc(C)c(C)c1 (stereo not given) .
inactive

I would be grateful if you could indicate the recorded call for CN(C)C1=Nc2ccccc2C(=S)N2CSCC12 (stereo not given) .
inactive

I would be grateful if you could indicate the recorded call for C/C=C1\C[C@@H]2C(OC)Nc3cc(O)c(OC)cc3C(=O)N2C1 (stereo not given in full) .
active

I would be grateful if you could indicate the recorded call for `Cc1ccc(S(=O)(=O)N2CCN(CCN(C)CCN3CCN(S(=O)(=O)c4ccc(C)cc4)CC3)CC2)cc1` .
inactive

These measurements were taken from ChEMBL document CHEMBL1201862.
